The measured values listed here are drawn from patent US12398125B2.

# Tested on: α-synuclein aggregate in neurospheroid prepared from human iPS cells with a mutation in PLA2G6 gene
# assay: Test 2: suppressing the accumulation of α-synuclein aggregate with neurospheroid
# Format: cell-based
# condition label: 120 h, 1000 nM, DMSO = 100%, compound added day 4, measured day 9 after induction of differentiation, read-out: Amount of aggregate (%) 1000 nM
# activity at 1 µM annotations
Record the value in %, omitting the unit from your answer.

CC1(C(=O)N2CCC(c3cccnc3C(F)(F)F)CC2)CN(C2CC2)C1: 64
CCC1(C(=O)N2CCC(c3cnc(C(F)(F)F)c(F)c3)CC2)COC1: 56
O=C(N1CCC(c2ccc(C(F)(F)F)nc2)CC1)N1C[C@H]2CC[C@@H](C1)O2: 51

Notebook: CC1(C(=O)N2CCC(c3ccc(C(F)(F)F)nc3)C2)COC1 (centres unmarked) , activity at 1 µM read as 22

activity at 1 µM for CN1CC(C)(C(=O)N2CCC(c3ccc(C(F)(F)F)nc3)C2)C1 (centres unmarked) is 55

* * *

# Test system: α-synuclein aggregate in neurospheroid prepared from human iPS cells with a mutation in PLA2G6 gene
# assay: Test 3: reducing the accumulation of α-synuclein aggregate with neurospheroid
# Format: cell-based
# condition label: 120 h, 100 nM, DMSO = 100%, compound added day 10, measured day 15 after induction of differentiation, read-out: Amount of aggregate (%) 100 nM
List of activity at 0.1 µM values.
Report only the number, with the unit % understood.

CCC1(C(=O)N2CCC(c3ccc(C(F)(F)F)nc3)CC2)COC1 [Example 5]: 22
CC1(C(=O)N2CCC(c3ccc(C(F)(F)F)nc3)CC2)COC1 [Example 1]: 20
CN1CC(C)(C(=O)N2CCC(c3cncc(C(F)(F)F)c3)CC2)C1 [Example 44]: 15
CC1(C(=O)N2CCC(c3cnccc3C(F)(F)F)CC2)CNC1 [Example 35]: 16
CC1(C(=O)N2CCC(c3cnc(C(F)(F)F)c(F)c3)CC2)COC1 [Example 29]: 42

// sample CN1CC(C)(C(=O)N2CCC(c3ccc(C(F)(F)F)cn3)CC2)C1 [Example 45] , its activity at 0.1 µM was 46

For record CC1(C(=O)N2CCC(c3cncc(C(F)(F)F)c3)CC2)COC1 [Example 2] the listed activity at 0.1 µM is 20

The molecule CC1(C(=O)N2CCC(c3ccc(C(F)(F)F)cn3)CC2)COC1 [Example 9] showed activity at 0.1 µM equal to 10

# activity at 0.1 µM (molecule: CCC1(C(=O)N2CCC(c3cnc(C(F)(F)F)cc3C)CC2)COC1 [Example 32] ) is 29

The molecule listed as CN1CC(C)(C(=O)N2CCC(c3cccnc3C(F)(F)F)CC2)C1 [Example 42] shows activity at 0.1 µM equal to 28

* * *

# System: α-synuclein aggregate in neurospheroid prepared from human iPS cells with a mutation in PLA2G6 gene
# assay: Test 2: suppressing the accumulation of α-synuclein aggregate with neurospheroid
# Format: cell-based
# condition label: 120 h, 1000 nM, DMSO = 100%, compound added day 4, measured day 9 after induction of differentiation, read-out: Amount of aggregate (%) 1000 nM
Structures can show the parent of a compound that is named as a salt.
Measured activity at 1 µM by item
Value expressed in %; do not type the unit.

The following molecules have reported results that may help.
O=C(C1CCOC1)N1CCC(c2ccc(C(F)(F)F)nc2)CC1 (stereo not shown): 39
CC1(C(=O)N2CCC(c3cncc(C(F)(F)F)c3)CC2)CNC1: 81
C[C@H]1C[C@H](c2ccc(C(F)(F)F)nc2)CCN1C(=O)C1(C)COC1: 40
O=C(N1CCOCC1)N1CCC(c2ccc(C(F)(F)F)nc2)CC1: 18

# molecule CC1(C(=O)N2CCC(c3cncc(C(F)(F)F)c3)CC2)COC1 ; its activity at 1 µM = 1

Data point: CC1(C(=O)N2CCC(c3ccc(C(F)(F)F)nc3)C2)CNC1 (stereo not shown) ; activity at 1 µM = 70

Lab book: activity at 1 µM of CCC1(C(=O)N2CC[C@H](c3ccc(C(F)(F)F)nc3)C[C@@H]2C)COC1 noted as 80

Quick note, activity at 1 µM for CN1CC(C)(C(=O)N2CCCC(c3ccc(C(F)(F)F)nc3)C2)C1 (stereo not shown) landed at 25

So for CC1(C(=O)N2CCC(c3ccc(Cl)nc3)CC2)COC1 , the logged activity at 1 µM turned out to be 35

Entry CC1(C(=O)N2CCC(c3ccc(C(F)(F)F)nn3)CC2)COC1 ; activity at 1 µM = 50

activity at 1 µM for CC1(C(=O)N2CCC(O)(c3ccc(C(F)(F)F)nc3)CC2)COC1 is 91

// recorded activity at 1 µM for CN1CC(C)(C(=O)N2CCC(c3ccc(C(F)(F)F)cn3)CC2)C1 : 4

Lab note: measured activity at 1 µM of CC1(C(=O)N2CCC(c3ccc(C(F)(F)F)nc3)CC2)CCOCC1 was 49

// CN1CC(C)(C(=O)N2CCC(c3ccc(C(F)(F)F)nc3)CC2)C1 [Example 41, hydrochloride] : activity at 1 µM value = 70

Consider CC1(C(=O)N2CC(c3ccc(C(F)(F)F)nc3)C2)COC1 . Its measured activity at 1 µM is 7

Lab book: activity at 1 µM of CCC1(C(=O)N2CCC(c3cnc(C(F)(F)F)cc3C)CC2)COC1 noted as 5

Just so you know, measured activity at 1 µM for CC1(C)CC(C(=O)N2CCC(c3ccc(C(F)(F)F)nc3)CC2)CCO1 (stereo not shown) came out at 87

For reference, reported activity at 1 µM for CN1CC(C)(C(=O)N2CCC(c3cnccc3C(F)(F)F)CC2)C1 stands at 11

get_value(item= Cc1ccc(C2CCN(C(=O)C3(C)COC3)CC2)cn1 , readout=activity at 1 µM) returns 45

Entry O=C([C@@H]1CCOC1)N1CCC(c2ccc(C(F)(F)F)nc2)CC1 ; activity at 1 µM = 33

response.value for C[C@H]1C[C@@H](c2ccc(C(F)(F)F)nc2)CCN1C(=O)C1(C)COC1 (field: activity at 1 µM) = 106

// field: activity at 1 µM; key: CN1CC(C)(C(=O)N2CCC(c3cncc(C(F)(F)F)c3)CC2)C1 ; value = 0
